# targetOrSystem: human PD-L1 (Homo sapiens (Human))
# methodSummary: T cell activation luciferase reporter cell culture system (T Cell Activation Assay)
# Format: cell-based
# cond: luciferase reporter assay; PD-L1 aAPC/CHO-K1 cells with PD-1 effector Jurkat T cells
readoutName: log10(EC50) (log10 of the value in nM)
Short version: log10 scale, EC50, nM.

Example entries and their recorded answers appear below.
COc1cc(-c2nccc(-c3cccc(-c4ccc(CNC[C@@H]5CCC(=O)N5)c(OC)n4)c3Cl)c2Cl)cnc1CN[C@H]1CCOC1=O
2.83
COc1cc(-c2nccc(-c3cccc(-c4ccc(CNC5CCN(C(=O)CO)CC5)c(OC)n4)c3Cl)c2Cl)ccc1CNC1CCN(C(C)=O)CC1
1.13
COc1nc(-c2nccc(-c3cccc(NC(=O)c4cn(C)c(=O)n(C)c4=O)c3Cl)c2Cl)ccc1CNC[C@H](C)O
3.27

Please state, for each entry, its recorded log10(EC50).
1. COc1cc(-c2nccc(-c3cccc(-c4ccc(CNC5CCOCC5)c(OC)n4)c3Cl)c2Cl)ccc1CN(C)C1CCN(C(C)=O)CC1
2. COc1cc(-c2nccc(-c3cccc(-c4ccc(CNC[C@@H]5CCC(=O)N5)c(OC)n4)c3Cl)c2Cl)ccc1CN(C)C[C@H](C)O

1.64
1.20

Tell me reported log10(EC50) for `COc1cc(-c2nccc(-c3cccc(-c4ccc5c(CNC6CCOCC6)cn(C)c5n4)c3Cl)c2Cl)ccc1CNC1CCN(C(C)=O)CC1` , tested with human PD-L1 (Homo sapiens (Human)). 2.35

---

Please respond with reported pEC50 for every item in the list.
# targetOrSystem: human PD-L1 (Homo sapiens (Human), UniProt Q9NZQ7)
# Sequence (Q9NZQ7 19-290): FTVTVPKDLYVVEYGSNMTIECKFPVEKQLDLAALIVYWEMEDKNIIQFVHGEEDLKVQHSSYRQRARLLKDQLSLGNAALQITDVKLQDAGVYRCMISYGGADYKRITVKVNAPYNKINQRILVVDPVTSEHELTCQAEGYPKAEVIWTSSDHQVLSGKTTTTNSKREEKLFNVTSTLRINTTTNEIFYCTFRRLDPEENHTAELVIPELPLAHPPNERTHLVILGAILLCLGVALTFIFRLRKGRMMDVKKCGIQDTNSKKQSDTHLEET
# methodSummary: T cell activation luciferase reporter cell culture system (T Cell Activation Assay)
# Type: cell-based
# cond: luciferase reporter assay; PD-L1 aAPC/CHO-K1 cells with PD-1 effector Jurkat T cells
Answers are plain numbers, as −log10 of the molar value.

COc1cc(-c2nccc(-c3cccc(-c4ccc(CN[C@H]5C[C@](C)(O)C5)c(OC)n4)c3Cl)c2Cl)ccc1CN[C@H]1C[C@](C)(O)C1 [Example 385]
7.75

Request - read-out pEC50 | tested on human PD-L1 (Homo sapiens (Human), UniProt Q9NZQ7) | compound COc1cc(-c2nccc(-c3cccc(-c4ccc(CNC5CCN(C)C(=O)C5)c(OC)n4)c3Cl)c2Cl)ccc1CNC1CCN(C)C(=O)C1 (stereo not drawn) [Example 418] 7.93

---

Assign pEC50 to each entry below.
# targetOrSystem: human PD-L1 (Homo sapiens (Human))
# methodSummary: T cell activation luciferase reporter cell culture system (T Cell Activation Assay)
# Type: cell-based
# cond: luciferase reporter assay; PD-L1 aAPC/CHO-K1 cells with PD-1 effector Jurkat T cells
One number for each entry, as −log10 of the molar value.

COc1cc(-c2nccc(-c3cccc(-c4ccc(CNC5CCN(C(C)=O)CC5)c(OC)n4)c3C)c2C)ccc1CNC1CCN(C(C)=O)CC1 [Example 363]
6.40
COc1cc(-c2ccnc(-c3cccc(-c4ccc(CNC5CCOCC5)c(OC)n4)c3Cl)c2Cl)ccc1CNC1CCOCC1 [Example 623]
6.65

# return pEC50 for each item in the list
1. COc1cc(-c2nccc(-c3cccc(-c4ccc(CNC5CCN(C(C)=O)CC5)c(OC)n4)c3Cl)c2Cl)ccc1CN1CCC[C@H](O)C1 [Example 507]
2. COC(=O)N1CCC(NCc2ccc(-c3nccc(-c4cccc(-c5ccc(CNC6CCN(C(=O)OC)CC6)c(OC)n5)c4Cl)c3Cl)cc2OC)CC1 [Example 465]
3. COc1cc(-c2nccc(-c3cccc(NC(=O)c4ccc(CNCCO)cn4)c3C)c2Cl)ccc1CN1CC2(CNC(=O)C2)C1 [Example 744]
4. COc1nc(-c2cccc(-c3ccnc(-c4ccc5c(CNC[C@@H]6CCC(=O)N6)cn(C)c5c4)c3Cl)c2Cl)ccc1CNC[C@@H]1CCC(=O)N1 [Cmpd 11]
5. COc1cc(-c2nccc(-c3ccnc(-c4cc(F)c(CNC5CCN(C(C)=O)CC5)c(OC)c4)c3Cl)c2Cl)cc(F)c1CNC1CCN(C(C)=O)CC1 [Compound 313]
6. COc1nc(-c2cccc(-c3ccnc(-c4cnn(C5CNC5)c4)c3Cl)c2Cl)ccc1CNC[C@@H]1CCC(=O)N1 [Cmpd 119]
7. COc1nc(-c2cccc(-c3cncc(-c4ccc(CN5CC6(CNC(=O)C6)C5)c(OC)n4)c3Cl)c2Cl)ccc1CN1CC2(CNC(=O)C2)C1 [Compound 640]
8. COc1cc(-c2nccc(-c3cccc(-c4ccc(CNC[C@@H]5CCC(=O)N5)c(OC)n4)c3Cl)c2Cl)ccc1CNC1CCN(C(C)=O)CC1 [Cmpd 109]

[7.34, 7.32, 6.81, 7.08, 7.01, 6.43, 7.58, 7.55]

# batch size: 7; output pEC50 per entry
1. CNCc1ccc(C(=O)Nc2cccc(-c3ccnc(-c4ccc(CNC)c(OC)c4)c3Cl)c2Cl)nc1 [Example 694]
2. COc1cc(-c2nccc(-c3cccc(-c4ccc(CN[C@H]5CC[C@H](O)CC5)c(OC)n4)c3Cl)c2Cl)ccc1CN[C@H]1CC[C@H](O)CC1 [Example 364]
3. COc1cc(-c2nccc(-c3cccc(-c4ccc5c(CNCCO)cn(C)c5n4)c3Cl)c2Cl)ccc1CNC[C@@H]1CCC(=O)N1 [Compound 97]
4. COc1nc(-c2cccc(-c3ccnc(-c4cc(OC)c5nc(CNC[C@@H]6CCC(=O)N6)cn5c4)c3Cl)c2Cl)ccc1CNC[C@@H]1CCC(=O)N1 [Example 310]
5. COc1cc(-c2nccc(-c3cccc(-c4ccc(CNC5CCN(c6ccccc6)CC5)c(OC)n4)c3Cl)c2Cl)ccc1CNC1CCN(c2ccccc2)CC1 [Example 423]
6. COc1cc(-c2nccc(-c3ccnc(-c4cc(F)c(CN5CC6(CNC(=O)C6)C5)c(OC)c4)c3Cl)c2Cl)cc(F)c1CN1CC2(CNC(=O)C2)C1 [Compound 323]
7. COc1cc(-c2cncc(-c3cccc(-c4ccc(CN5CC6(CNC(=O)C6)C5)c(OC)n4)c3Cl)c2Cl)ccc1CN1CC2(CNC(=O)C2)C1 [Compound 642]

1. 7.16
2. 7.55
3. 7.55
4. 7.04
5. 6.45
6. 6.79
7. 6.74

Value sought for every listed compound: pEC50.
1. COc1cc(-c2nccc(-c3cccc(-c4ccc(CNC[C@@H]5CCC(=O)N5)c(OC)n4)c3Cl)c2Cl)cc2c1CN(CCC1(O)CCC1)CC2 [Cmpd 51]
2. COCC(=O)N1CC2(CN(Cc3ccc(-c4cccc(-c5ccnc(-c6ccc(CN7CC8(C7)CN(C(C)=O)C8)c(OC)c6)c5Cl)c4Cl)nc3OC)C2)C1 [Example 691]

1. 7.13
2. 7.17

Dear reader, for each entry below, please note its pEC50.
1. COc1cc(-c2nccc(-c3cccc(-c4ccc(CNC5CCN(C(C)=O)CC5)c(OC)n4)c3Cl)c2Cl)ccc1CNCCC(=O)O [Example 390]
2. COc1cc(-c2nccc(-c3cccc(NC(=O)c4ccc(CN5CC6(CNC(=O)C6)C5)cn4)c3Cl)c2Cl)ccc1CN1CC2(CNC(=O)C2)C1 [Example 672]

1: 7.25; 2: 6.66

Name the reported pEC50 value associated with the compound COc1cc(-c2nccc(-c3cccc(NC(=O)c4ccc(CNCCO)cn4)c3C)c2Cl)ccc1CNC1CCOCC1 [Example 703] 6.83

All values here come from patent US20240246964A1.
